B1: STEAP1 (parent)
chain: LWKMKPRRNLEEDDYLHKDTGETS

Variants of: B1
Assay: protein stability index of a GFP-peptide fusion (GPS, HEK-293T) (PSI 1-6); higher = more stable;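 further: lentivirally expressed fusions sorted by FACS into six bins by GFP to DsRed ratio, PSI derived from sequencing read proportions per bin multiplied by bin number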
Conditions: c terminus: a fixed tail appended
Readout Name: protein stability index

Examples with answers:
1) L10A :: 4.86
2) P6L :: 3.86

Quick one: give me protein stability index for each item below, same order please.
1. L16Y
2. D13Y
3. L1C
4. D13F
5. D13S
6. L16V
7. L16C
8. R8Y

Key:
4.14
4.17
4.43
3.83
3.85
4.52
4.63
4.04
